Value source: ChEMBL document CHEMBL1759885

- Tested on: RAW264.7
- ASSAY_SUMMARY: Inhibition of LPS-induced nitric oxide production in mouse RAW264.7 cells after 20 hrs by Griess reaction
- Assay type: functional, cell-based
- EXPERIMENTAL_CONDITIONS: RAW264.7, 20 h
pIC50: −log10 of the molar value.
MEASUREMENT_NAME: pIC50

Worked examples, 4 compounds total:
CCCNC(=O)c1ccc(-n2cc(-c3ccccc3)nn2)cc1O	< 4.70
CCCCCc1ccc(-c2cn(-c3ccc(O)c(C(=O)N4CCCCC4)c3)nn2)cc1	< 4.70
CCCNC(=O)c1ccc(-n2cc(-c3cc(F)cc(F)c3)nn2)cc1O	< 4.70
CCCCCCc1cn(-c2ccc(O)c(C(=O)NCCC)c2)nn1	4.71

Give one value of pIC50 per listed compound.
1. O=C(c1ccc(-n2cc(-c3ccccc3)nn2)cc1O)N1CCCCC1
2. CCCCCc1ccc(-c2cn(-c3ccc(O)c(C(=O)NCCC)c3)nn2)cc1

[A]
1. < 4.70
2. < 4.70
